Provide the recorded EC50 for the entries that follow.
target: human FPR2 (Homo sapiens (Human)); assay: FPR2 cyclic adenosine monophosphate (cAMP) assay; conditions: CHO cells overexpressing human FPR2; forskolin 5 µM; inhibition of cAMP production; read-out: hFPR2 cAMP2 EC50
Sequence (P25090 whole entry): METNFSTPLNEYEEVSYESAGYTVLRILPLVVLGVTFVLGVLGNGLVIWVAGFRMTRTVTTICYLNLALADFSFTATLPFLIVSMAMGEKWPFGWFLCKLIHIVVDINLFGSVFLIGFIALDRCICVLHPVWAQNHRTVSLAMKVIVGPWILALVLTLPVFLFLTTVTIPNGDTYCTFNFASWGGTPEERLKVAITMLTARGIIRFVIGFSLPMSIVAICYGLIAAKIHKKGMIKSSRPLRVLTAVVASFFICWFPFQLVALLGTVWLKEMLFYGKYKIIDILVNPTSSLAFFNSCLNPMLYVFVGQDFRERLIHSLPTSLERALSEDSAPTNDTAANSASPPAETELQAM
Output spec: scalar in nM, unitless text.

EC50 value, target or system human FPR2 (Homo sapiens (Human)), for COc1cc(F)c([C@@H]2CN(c3ccnn(CCO)c3=O)C(=O)[C@H]2NC(=O)c2ccc(OC(F)(F)F)cc2)c(F)c1 : 3.5

EC50 value, target or system human FPR2 (Homo sapiens (Human)), for COc1cc(F)c([C@@H]2CN(c3c(C)ccn(CC(C)O)c3=O)C(=O)[C@H]2NC(=O)c2ccc(OC(F)(F)F)cc2)c(F)c1 (stereo partly drawn) [Example 361] : 1.7

EC50 value, target or system human FPR2 (Homo sapiens (Human)), for COc1cc(F)c([C@@H]2CN(c3c(C(F)(F)F)ccn(C)c3=O)C(=O)[C@H]2NC(=O)c2ccc(Cl)cc2)c(F)c1 : 17

EC50 value, target or system human FPR2 (Homo sapiens (Human)), for COc1cc(F)c([C@@H]2CN(c3ccc(CO)n(C)c3=O)C(=O)[C@H]2NC(=O)c2ccc(OC(F)F)cc2)c(F)c1 : 6.7

EC50 value, target or system human FPR2 (Homo sapiens (Human)), for COc1cc(N2C[C@@H](c3c(F)cc(OC)cc3F)[C@H](NC(=O)c3ccc(OC(F)(F)F)cc3)C2=O)nc(C(C)(C)O)c1 : 21.8

EC50 value, target or system human FPR2 (Homo sapiens (Human)), for COc1ccc([C@@H]2CN(c3cccn(CC(F)F)c3=O)C(=O)[C@H]2NC(=O)c2ccc(OC(F)F)cc2)c(F)c1 : 1.5

###

target: human FPR2 (Homo sapiens (Human)); assay: FPR2 cyclic adenosine monophosphate (cAMP) assay; conditions: CHO cells overexpressing human FPR2; forskolin 5 µM; inhibition of cAMP production; read-out: hFPR2 cAMP2 EC50
Doc: threshold 3 nM (exclusive). Items with EC50 beneath it return Condition met; others return Condition not met.

Q) State whether 3 nM exceeds EC50 recorded for COc1cc(F)c([C@@H]2CN(c3c(C)ccn(C(CO)C(F)(F)F)c3=O)C(=O)[C@H]2NC(=O)c2ccc(OC(F)F)cc2)c(F)c1 (stereo partly drawn) [Example 707] .
A) Condition not met

Q) State whether 3 nM exceeds EC50 recorded for CCn1cnc(C)c(N2C[C@@H](c3c(F)cc(OC)cc3F)[C@H](NC(=O)c3ccc(Cl)cc3)C2=O)c1=O [Example 520] .
A) Condition not met

Q) State whether 3 nM exceeds EC50 recorded for COc1cc(N2C[C@@H](c3c(F)cc(OC)cc3F)[C@H](NC(=O)c3ccc(Cl)cc3)C2=O)nc(N2C[C@@H]3C[C@H]2CN3C)c1 [Example 40] .
A) Condition met

Q) State whether 3 nM exceeds EC50 recorded for COc1cc(F)c([C@@H]2CN(c3cncn(CCO)c3=O)C(=O)[C@H]2NC(=O)c2ccc(OC(F)F)cc2)c(F)c1 [Example 488] .
A) Condition met

Q) State whether 3 nM exceeds EC50 recorded for COc1cc(F)c([C@@H]2CN(c3c(C)ccn(Cc4cc(C)no4)c3=O)C(=O)[C@H]2NC(=O)c2ccc(OC(F)F)cc2)c(F)c1 [Example 579] .
A) Condition not met

Q) State whether 3 nM exceeds EC50 recorded for COc1cc(F)c([C@@H]2CN(c3cc(C(F)(F)F)cn(C)c3=O)C(=O)[C@H]2NC(=O)c2ccc(OC(F)F)cc2)c(F)c1 [Example 168] .
A) Condition not met

Reference source: patent US20230348426A1
